Quick reference: Stability in Powder Concentrate (content by LCMSMS) of the listed items.
Assay type: physicochemical
Conditions: stored at room temperature (21-25° C.), day 1
Response body: numeric value in mg/g powder, unit text excluded.

Completed entries (count: 3):
Molecule	Result Units	Numeric Value
CCCCCc1cc(O)c2c(c1)OC1(C)CCC3C1C2C3(C)C (stereo not shown) [CBL, cannabicyclol]	mg/g powder	0.051
C=C(C)[C@@H]1CCC(C)=C[C@H]1c1c(O)cc(CCCCC)cc1O [CBD, cannabidiol, reference compound]	mg/g powder	5.69
Cc1c(C)c2c(c(C)c1O)CC[C@@](C)(CCC[C@H](C)CCC[C@H](C)CCCC(C)C)O2 [α-Tocopherol]	mg/g powder	4.89

Ask | Reported Stability in Powder Concentrate (content by LCMSMS) for C=C(C)[C@@H]1CCC(C)=C[C@H]1c1c(O)cc(CCC)cc1O [CBDV, cannabidivarin] : what is it?
Reply | 0.051

Ask | Reported Stability in Powder Concentrate (content by LCMSMS) for CCCCCc1cc2c(c(O)c1C(=O)O)[C@@H]1C=C(C)CC[C@H]1C(C)(C)O2 [D9 THCA, delta-9-tetrahydrocannabinolic acid] : what is it?
Reply | 0.150

Ask | Reported Stability in Powder Concentrate (content by LCMSMS) for C=C(C)[C@@H]1CCC(C)=C[C@H]1c1c(O)cc(CCCCC)c(C(=O)O)c1O [CBDA, cannabidiolic acid] : what is it?
Reply | 0.412

Ask | Reported Stability in Powder Concentrate (content by LCMSMS) for CCCCCc1cc(O)c2c(c1)OC(C)(CCC=C(C)C)C=C2 (stereo not shown) [CBC, cannabichromene] : what is it?
Reply | 0.072

----------
Quick reference: Stability of Cannabinoids in AB Red of the listed items.
Experiment: Stability of cannabinoid and Vitamin E components of Beverage 2 (AB Red) stored at 8° C. and 21-25° C., LCMSMS over 570 days
Settings: 21-25° C., 17 days

Ask | Reported Stability of Cannabinoids in AB Red for C=C(C)[C@@H]1CCC(C)=C[C@H]1c1c(O)cc(CCC)cc1O [CBDV, cannabidivarin] : what is it?
Reply | 0.20 µg/mL

Ask | Reported Stability of Cannabinoids in AB Red for CCCCCc1cc(O)c2c(c1)OC(C)(C)c1ccc(C)cc1-2 [CBN, cannabinol] : what is it?
Reply | 2.74 µg/mL

Ask | Reported Stability of Cannabinoids in AB Red for CCCCCc1cc(O)c2c(c1)OC1(C)CCC3C1C2C3(C)C (stereo not drawn) [CBL, cannabicyclol] : what is it?
Reply | 0.51 µg/mL

Ask | Reported Stability of Cannabinoids in AB Red for CCCCCc1cc2c(c(O)c1C(=O)O)[C@@H]1C=C(C)CC[C@H]1C(C)(C)O2 [D9 THCA, delta-9-tetrahydrocannabinolic acid] : what is it?
Reply | 1.35 µg/mL

----------
Quick reference: Stability in AB White, 8° C. (content by LCMSMS) of the listed items.
Assay: Stability of cannabinoid and Vitamin E components of Beverage 1 (AB White) stored at 8° C. and 21-25° C., LCMSMS over 570 days
Type: physicochemical
Conditions: beverage stored at 8° C., day 210
Response body: numeric value in µg/mL, unit text excluded.

Completed entries (count: 6):
Compound	Numeric Value
CCCCCc1cc(O)c2c(c1)OC1(C)CCC3C1C2C3(C)C (stereo not shown) [CBL, cannabicyclol]	0.534
CCCCCc1cc(O)c2c(c1)OC(C)(CCC=C(C)C)C=C2 (stereo not shown) [CBC, cannabichromene]	0.309
CCCCCc1cc2c(c(O)c1C(=O)O)[C@@H]1C=C(C)CC[C@H]1C(C)(C)O2 [D9 THCA, delta-9-tetrahydrocannabinolic acid]	0.923
C=C(C)[C@@H]1CCC(C)=C[C@H]1c1c(O)cc(CCCCC)cc1O [CBD, cannabidiol, reference compound]	27.76
CCCCCc1cc(O)c(C/C=C(\C)CCC=C(C)C)c(O)c1 [CBG, cannabigerol]	4.73
C=C(C)[C@@H]1CCC(C)=C[C@H]1c1c(O)cc(CCC)cc1O [CBDV, cannabidivarin]	0.147

Ask | Reported Stability in AB White, 8° C. (content by LCMSMS) for CCCCCc1cc(O)c2c(c1)OC(C)(C)c1ccc(C)cc1-2 [CBN, cannabinol] : what is it?
Reply | 2.75
